assay: Cytotoxicity against human OVCAR8 cells assessed as reduction in cell viability at 25 ug/mL after 72 hrs by MTT assay; assay type: functional, OVCAR-8
Provide the recorded Activity for the entries that follow.
Give bare numbers, in %.

Value sought for every listed compound: Activity.
1. COc1ccc(Br)cc1C1=C(Br)C(=O)N(CC(C)C)/C1=C/c1ccc(Br)cc1
2. COc1ccc(C)cc1C1=C(Br)C(=O)N(CC(C)C)/C1=C\c1ccccc1Cl
3. COc1ccc(Br)cc1C1=C(Br)C(=O)N(CC(C)C)/C1=C/c1cccc(Cl)c1
4. COc1ccc(Br)cc1C1=C(Br)C(=O)O/C1=C\c1ccccc1Cl
5. COc1ccc(Br)cc1C1=C(Br)C(=O)O/C1=C\c1ccc(F)cc1
6. CCCN1C(=O)C(Cl)=C(Cl)C1(O)Cc1ccc(F)cc1 (stereo not drawn)
7. COc1ccc(Br)cc1C1=C(Br)C(=O)O/C1=C\c1ccc(C(F)(F)F)cc1
8. COc1ccc(Cl)cc1-c1c(Cc2cccc([N+](=O)[O-])c2)n[nH]c(=O)c1Br

Reply:
1: 90.66; 2: 20.46; 3: 93.39; 4: 57.61; 5: 94.68; 6: 9.25; 7: 99.5; 8: 37.42

Value sought for every listed compound: Activity.
1. COc1ccc(Br)cc1-c1c(Cc2ccccc2Cl)n[nH]c(=O)c1Br
2. CCCN1C(=O)C(Cl)=C(Cl)/C1=C\c1ccc(F)cc1

Reply:
1. 27.93
2. 99.07

Value sought for every listed compound: Activity.
1. COc1ccccc1C1=C(Br)C(=O)N(CC(C)C)/C1=C/c1ccc(C(F)(F)F)cc1
2. COc1ccc(C)cc1C1=C(Br)C(=O)O/C1=C\c1ccccc1Cl
3. O=C1O/C(=C\c2ccc(Cl)cc2)C(Cl)=C1Cl

Reply:
[75.07, 26.18, 0]

---

assay: Cytotoxicity against human OVCAR8 cells assessed as reduction in cell viability at 25 ug/mL after 72 hrs by MTT assay; type: functional, OVCAR-8
Classify by measured Activity: 1.0 if it is equal to or exceeds 40%, 0.0 if it is smaller.

Ask: Please check the record COc1ccc(Br)cc1C1=C(Br)C(=O)N(CC(C)C)C1(O)Cc1cccc(Cl)c1 (stereo not given) and state if its Activity is at or above 40%.
Reply: 1.0

Ask: Moving on to COc1ccc(Br)cc1C1=C(Br)C(=O)N(CC(C)C)/C1=C\c1cccc(Cl)c1
Reply: 1.0

Ask: Moving on to COc1cccc(CC2(O)C(c3cc(Cl)ccc3OC)=C(Br)C(=O)N2CC(C)C)c1 (stereo not given)
Reply: 0.0

Ask: Moving on to COc1cccc(Cc2n[nH]c(=O)c(Br)c2-c2cc(Br)ccc2OC)c1
Reply: 0.0

Ask: Moving on to COc1ccc(Br)cc1C1=C(Br)C(=O)N(CC(C)C)/C1=C\c1ccc(Br)cc1
Reply: 0.0

Ask: Moving on to COc1ccc(Br)cc1-c1c(Cc2ccc(C(F)(F)F)cc2)n[nH]c(=O)c1Br
Reply: 1.0

---

assay: Cytotoxicity against human OVCAR8 cells assessed as reduction in cell viability at 25 ug/mL after 72 hrs by MTT assay; assay type: functional, OVCAR-8
Provide the recorded Activity for the entries that follow.
One number for each entry, in %.

| Molecule | Quantity unit | Activity |
| --- | --- | --- |
| O=C1O/C(=C\c2ccc(Br)cc2)C(Cl)=C1Cl | % | 98.99 |
| O=C1O/C(=C\c2ccccc2Br)C(Cl)=C1Cl | % | 93.14 |
| COc1cccc(/C=C2\OC(=O)C(Br)=C2c2cc(Cl)ccc2OC)c1 | % | 97.92 |

Value sought for every listed molecule: Activity.
1. COc1ccc(Br)cc1C1=C(Br)C(=O)N(CC(C)C)C1(O)Cc1ccc(Br)cc1 (configuration not stated)
2. COc1ccc(Cl)cc1-c1c(Cc2ccc(C(F)(F)F)cc2)n[nH]c(=O)c1Br
3. COc1cccc(/C=C2\C(c3cc(Cl)ccc3OC)=C(Br)C(=O)N2CC(C)C)c1
4. CC(C)CN1C(=O)C(Cl)=C(Cl)/C1=C\c1ccc(Br)cc1

Reply:
32.1
53.87
55.28
52.94

Value sought for every listed molecule: Activity.
1. CC(C)CN1C(=O)C(Cl)=C(Cl)/C1=C/c1ccc(Br)cc1
2. COc1ccccc1C1=C(Br)C(=O)N(CC(C)C)C1(O)Cc1ccc(C(F)(F)F)cc1 (configuration not stated)
3. COc1ccc(Cl)cc1C1=C(Br)C(=O)O/C1=C\c1ccc(C(F)(F)F)cc1
4. O=C1O/C(=C\c2cccc(Cl)c2)C(Cl)=C1Cl
5. COc1ccccc1C1=C(Br)C(=O)O/C1=C\c1ccc(C(F)(F)F)cc1

Reply:
1. 54.45
2. 21.61
3. 96.84
4. 99.86
5. 98.85

---

assay: Cytotoxicity against human OVCAR8 cells assessed as reduction in cell viability at 25 ug/mL after 72 hrs by MTT assay; type: functional, OVCAR-8
Readout kind: Activity (%)
Give bare numbers, in %.

Value sought for every listed molecule: Activity.
1. COc1ccc(Cl)cc1-c1c(Cc2ccc(F)cc2)n[nH]c(=O)c1Br
2. COc1ccc(Cl)cc1C1=C(Br)C(=O)O/C1=C\c1ccc([N+](=O)[O-])cc1

Reply:
[42.17, 53.71]

Value sought for every listed molecule: Activity.
1. COc1ccc(Cl)cc1C1=C(Br)C(=O)O/C1=C\c1ccc(F)cc1
2. COc1ccc(Br)cc1C1=C(Br)C(=O)O/C1=C\c1ccc(Br)cc1

Reply:
32.6
98.28

---

Provide the recorded Activity for the entries that follow.
assay: Cytotoxicity against human OVCAR8 cells assessed as reduction in cell viability at 25 ug/mL after 72 hrs by MTT assay; assay type: functional, OVCAR-8

Guide cases for Activity, answers given:
| Molecule | Readout kind | Result |
| --- | --- | --- |
| COc1cccc(/C=C2/C(c3cc(Cl)ccc3OC)=C(Br)C(=O)N2CC(C)C)c1 | Activity | 42.28% |
| CC(C)CN1C(=O)C(Cl)=C(Cl)C1(O)Cc1ccc(Br)cc1 (stereo not given) | Activity | 13.42% |
| COc1ccccc1C1=C(Br)C(=O)N(CC(C)C)/C1=C\c1ccc(C(F)(F)F)cc1 | Activity | 47.91% |
| O=C1O/C(=C\c2ccc(F)cc2)C(Cl)=C1Cl | Activity | 98.99% |
| O=C1O/C(=C\c2ccc(C(F)(F)F)cc2)C(Cl)=C1Cl | Activity | 98.2% |
| O=C1O/C(=C\c2ccc3c(c2)OCO3)C(Cl)=C1Cl | Activity | 94.9% |
| COc1ccc(C)cc1C1=C(Br)C(=O)N(CC(C)C)C1(O)Cc1ccccc1Cl (stereo not given) | Activity | 44.39% |
| COc1ccc(C)cc1C1=C(Br)C(=O)N(CC(C)C)/C1=C/c1ccccc1Cl | Activity | 34.8% |

Value sought for every listed molecule: Activity.
1. COc1ccc(Br)cc1-c1c(Cc2ccc(F)cc2)n[nH]c(=O)c1Br
2. O=C1O/C(=C\c2ccc([N+](=O)[O-])cc2)C(Cl)=C1Cl

Reply:
["29.08%", "98.2%"]
